B1: 2M8U (parent)
chain: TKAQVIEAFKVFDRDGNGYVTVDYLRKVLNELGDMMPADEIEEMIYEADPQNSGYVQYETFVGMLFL

Variants of: B1
Test: folding stability dG (cDNA display proteolysis); higher = more stable
Conditions: PBS, room temperature
reported-endpoint: folding stability dG (kcal/mol)
// note: answer is a bare numeric in kcal/mol

Study these solved cases before continuing.
In [3]: df
Out[3]:
   change     reported_endpoint  value_units  reported_result
0    Y55E  folding stability dG     kcal/mol             3.05
1    G63I  folding stability dG     kcal/mol             3.41
2    Q57A  folding stability dG     kcal/mol             3.31

// query Name the recorded folding stability dG for K27A .
// result 3.38

// query Name the recorded folding stability dG for Y55A .
// result 2.82

// query Name the recorded folding stability dG for A8T .
// result 2.67

// query Name the recorded folding stability dG for D23Y .
// result 4.04

// query Name the recorded folding stability dG for K27G .
// result 2.92

// query Name the recorded folding stability dG for F12Q .
// result 3.12

// query Name the recorded folding stability dG for V5S .
// result 2.1

// query Name the recorded folding stability dG for P37V .
// result 3.34

// query Name the recorded folding stability dG for F61G .
// result 0.903

// query Name the recorded folding stability dG for E31Q .
// result 3.53
